Data credit: patent US11753445B2

procedureSummary: Stability in mouse plasma, peptides 100 uM (Example 14)
Format: in vitro ADME
conditionDescription: pooled mouse plasma; mouse plasma 37° C.; peptide 100 uM; 180 min; read-out: % Remaining at Each Time Point: 180 min
For each record, write down the corresponding remaining at 3 h, 100 uM.
Give just the number in %; leave the unit off.

Prompt: remaining at 3 h, 100 uM lookup needed for H-MRWQEMGYIFYPRKLR-OH [compound 2] , thanks.
Response: 1.21

Prompt: remaining at 3 h, 100 uM lookup needed for H-MRWQEAGYIFYPRKLR-OH [compound 11] , thanks.
Response: 2.38

Prompt: remaining at 3 h, 100 uM lookup needed for H-WQEMGYIFYPRKLR-OH [compound 39] , thanks.
Response: 16.3

Prompt: remaining at 3 h, 100 uM lookup needed for H-MRWQEMGYIFYPRK-OH [compound 46] , thanks.
Response: 12.6

Prompt: remaining at 3 h, 100 uM lookup needed for H-MRWQEMGYIFYPRNLR-OH [compound 213] , thanks.
Response: 7.45

Prompt: remaining at 3 h, 100 uM lookup needed for H-MRWQEMQYIFYPRALR-OH [compound 219] , thanks.
Response: 12.2

Prompt: remaining at 3 h, 100 uM lookup needed for H-ARWQEMGYIFYPRKLR-OH [compound 6] , thanks.
Response: 6.89

Prompt: remaining at 3 h, 100 uM lookup needed for H-MRWQEMGYIAYPRKLR-OH [compound 15] , thanks.
Response: 0

Prompt: remaining at 3 h, 100 uM lookup needed for H-MRWQEMNYIFYPR-OH [compound 208] , thanks.
Response: 47.7

Prompt: remaining at 3 h, 100 uM lookup needed for H-MRAQEMGYIFYPRKLR-OH [compound 8] , thanks.
Response: 9.81

Prompt: remaining at 3 h, 100 uM lookup needed for H-MRWQEMGYIFYPRALR-OH [compound 19] , thanks.
Response: 0.22

Prompt: remaining at 3 h, 100 uM lookup needed for H-MRWQEMQYIFYPR-OH [compound 209] , thanks.
Response: 38.3

* * *

For each record, write down the corresponding remaining at 3 h, 10 uM.
procedureSummary: Stability in mouse plasma, peptides 10 uM (Example 15)
Assay type: in vitro ADME
conditionDescription: pooled mouse plasma; mouse plasma 37° C.; peptide 10 uM; 180 min; read-out: % Remaining at Each Time Point: 180 min

Prompt: remaining at 3 h, 10 uM lookup needed for H-RWQEMNYIAYPR-OH [compound 250] , thanks.
Response: 11.7%

Prompt: remaining at 3 h, 10 uM lookup needed for H-RWQEMNYIFYP-OH [compound 283] , thanks.
Response: 0.14%

Prompt: remaining at 3 h, 10 uM lookup needed for H-RWQEMNYIAEPR-OH [compound 251] , thanks.
Response: 30.2%

Prompt: remaining at 3 h, 10 uM lookup needed for H-RWQEENYIFEPR-OH [compound 259] , thanks.
Response: 34.8%

Prompt: remaining at 3 h, 10 uM lookup needed for H-MRWQEEGYIFYPRKLR-OH [compound 172] , thanks.
Response: 0%

Prompt: remaining at 3 h, 10 uM lookup needed for H-ERWQEAGYIAYPR-OH [compound 241] , thanks.
Response: 80.7%

Prompt: remaining at 3 h, 10 uM lookup needed for H-MRWQEMGYIFYPRKLR-OH [compound 2] , thanks.
Response: 0.4%

Prompt: remaining at 3 h, 10 uM lookup needed for H-RWQEEQYIAEPR-OH [compound 266] , thanks.
Response: 51.1%

Prompt: remaining at 3 h, 10 uM lookup needed for H-RWQEMNYIFEPR-OH [compound 249] , thanks.
Response: 11.1%

Prompt: remaining at 3 h, 10 uM lookup needed for Ac-MRWQEMNYIFYPR-OH [compound 286] , thanks.
Response: 25.9%

Prompt: remaining at 3 h, 10 uM lookup needed for H-MRWQEMNYIFYP-NH2 [compound 287] , thanks.
Response: 2.93%

Prompt: remaining at 3 h, 10 uM lookup needed for H-RWQEMQYIFEPR-OH [compound 254] , thanks.
Response: 18.1%

Prompt: remaining at 3 h, 10 uM lookup needed for H-RWQEMQYIFYPR-OH [compound 211] , thanks.
Response: 17.9%

* * *

For each record, write down the corresponding remaining at 2 h, 10 uM.
procedureSummary: Stability in mouse plasma, peptides 10 uM (Example 15)
Assay type: in vitro ADME
conditionDescription: pooled mouse plasma; mouse plasma 37° C.; peptide 10 uM; 120 min; read-out: % Remaining at Each Time Point: 120 min
Give just the number in %; leave the unit off.

Prompt: remaining at 2 h, 10 uM lookup needed for H-RWQEENYIFYPR-OH [compound 258] , thanks.
Response: 30.3

Prompt: remaining at 2 h, 10 uM lookup needed for H-RWQEMNYIFYPR-OH [compound 210] , thanks.
Response: 35.4

Prompt: remaining at 2 h, 10 uM lookup needed for H-RWQEEQYIAYPR-OH [compound 265] , thanks.
Response: 56

Prompt: remaining at 2 h, 10 uM lookup needed for H-RWQEEQYIFYPR-OH [compound 263] , thanks.
Response: 40.5

Prompt: remaining at 2 h, 10 uM lookup needed for H-QEMGYIFYPRKL-OH [compound 270] , thanks.
Response: 0.36

Prompt: remaining at 2 h, 10 uM lookup needed for H-RWQEENYIFEPR-OH [compound 259] , thanks.
Response: 32.8

Prompt: remaining at 2 h, 10 uM lookup needed for H-MRWQEMNYIFYPR-OH [compound 208] , thanks.
Response: 3.94

Prompt: remaining at 2 h, 10 uM lookup needed for H-RWQEMNYIAYPR-OH [compound 250] , thanks.
Response: 20

Prompt: remaining at 2 h, 10 uM lookup needed for H-RWQEENYIAYPR-OH [compound 260] , thanks.
Response: 35.7

Prompt: remaining at 2 h, 10 uM lookup needed for H-RWQEEQYIFEPR-OH [compound 264] , thanks.
Response: 59.4

Prompt: remaining at 2 h, 10 uM lookup needed for H-MRWQEMGYIFYPRKL-OH [compound 45] , thanks.
Response: 0

Prompt: remaining at 2 h, 10 uM lookup needed for H-RWQEMNYIAEPR-OH [compound 251] , thanks.
Response: 38.1

Prompt: remaining at 2 h, 10 uM lookup needed for H-RWQEEQYIAEPR-OH [compound 266] , thanks.
Response: 74.8

Prompt: remaining at 2 h, 10 uM lookup needed for H-MRWQEMNYIFYP-OH [compound 282] , thanks.
Response: 0.41

Prompt: remaining at 2 h, 10 uM lookup needed for H-WQEMGYIFYPRKL-OH [compound 269] , thanks.
Response: 2.64

Prompt: remaining at 2 h, 10 uM lookup needed for H-RWQEMGYIFYPRKL-OH [compound 268] , thanks.
Response: 0.48

Prompt: remaining at 2 h, 10 uM lookup needed for H-RWQEMQYIAYPR-OH [compound 255] , thanks.
Response: 28.7

* * *

procedureSummary: Stability in mouse plasma, peptides 10 uM (Example 15)
Format: in vitro ADME
conditionDescription: pooled mouse plasma; mouse plasma 37° C.; peptide 10 uM; 120 min; read-out: % Remaining at Each Time Point: 120 min
For each record, write down the corresponding remaining at 2 h, 10 uM.
Give just the number in %; leave the unit off.

Prompt: remaining at 2 h, 10 uM lookup needed for H-MRWQEMGYIFYPRKLR-OH [compound 2] , thanks.
Response: 0.8

Prompt: remaining at 2 h, 10 uM lookup needed for H-WQEMNYIFYP-OH [compound 285] , thanks.
Response: 1.76

Prompt: remaining at 2 h, 10 uM lookup needed for H-ERWQEAGYIAYPR-OH [compound 241] , thanks.
Response: 84.3

Prompt: remaining at 2 h, 10 uM lookup needed for H-MRWQEMNYIFYP-NH2 [compound 287] , thanks.
Response: 8.76

Prompt: remaining at 2 h, 10 uM lookup needed for H-MRWQEEGYIFYPRKLR-OH [compound 172] , thanks.
Response: 0.44

Prompt: remaining at 2 h, 10 uM lookup needed for H-RWQEMQYIFEPR-OH [compound 254] , thanks.
Response: 24

Prompt: remaining at 2 h, 10 uM lookup needed for Ac-MRWQEMNYIFYPR-OH [compound 286] , thanks.
Response: 36.4

Prompt: remaining at 2 h, 10 uM lookup needed for H-MRWQEMGYIFYARKLR-OH [compound 17] , thanks.
Response: 11.3

Prompt: remaining at 2 h, 10 uM lookup needed for H-RWQEMNYIFEPR-OH [compound 249] , thanks.
Response: 15.8

Prompt: remaining at 2 h, 10 uM lookup needed for H-RWQEENYIAEPR-OH [compound 261] , thanks.
Response: 68.1

Prompt: remaining at 2 h, 10 uM lookup needed for H-RWQEMNYIFYP-OH [compound 283] , thanks.
Response: 0.35

Prompt: remaining at 2 h, 10 uM lookup needed for H-WQEMNYIFYPR-OH [compound 284] , thanks.
Response: 22.1

Prompt: remaining at 2 h, 10 uM lookup needed for H-RWQEMQYIFYPR-OH [compound 211] , thanks.
Response: 30.3
